Test system: mouse fibrosarcoma L929 cells
Test: TNF+zVAD-induced necroptosis, CellTiter-Glo
Type: cell-based
Details: overnight, read-out: IC50 blocking necroptosis
Field: IC50. Provide a value for each of the molecules that follow.
Numbers only, in µM.

molecule	IC50 (µM)
CN1C(=O)C(Cc2c[nH]c3ccccc23)NC1=S (centres unmarked) [Nec-1, Necrostatin-1, reference compound]	1

Request: Any idea what its IC50 is? The molecule is `CC(C)(C)C(=O)N1N=CC[C@H]1c1ccccc1`
Response: 0.001
